Here, each record is paired with measured Anti-Inflammation Cf1 Mice data.
- Tested on: Cf1 male mice
- assay: Anti-inflammatory screen, Winter's test, 2% carrageenan hind foot
- Format: in vivo
- applied.conditions: Table XIV; unit inferred; unit assumed
Where a name gives a salt, the structure may show the parent alone.
Respond with the bare value in %.

Below: 2 compounds and their reported Anti-Inflammation Cf1 Mice.
C[N+](C)(C)[BH2-]C(=O)[O-].C[N+](C)(C)[BH2-]C(=O)[O-].C[N+](C)(C)[BH2-]C(=O)[O-].C[N+](C)(C)[BH2-]C(=O)[O-].C[N+](C)(C)[BH2-]C(=O)[O-].C[N+](C)(C)[BH2-]C(=O)[O-].O.O.O.[Cl-].[Fe+3].[Fe+3].[Fe+3].[O-2] | 74.2
C[NH+](C)[BH2-]C(=O)O [Compound 23, Dimethylamine-carboxyborane, sodium salt] | 68.5

Query block: // lookup Anti-Inflammation Cf1 Mice for C[N+](C)(C)[BH2-]C(=O)O [Compound 22, sodium salt]
Result block: 73.4

----------
- experimental.system: Cathepsin D (Mus musculus)
- Construct: azocasein assay pH 5.0
- Sequence (P18242 65-410): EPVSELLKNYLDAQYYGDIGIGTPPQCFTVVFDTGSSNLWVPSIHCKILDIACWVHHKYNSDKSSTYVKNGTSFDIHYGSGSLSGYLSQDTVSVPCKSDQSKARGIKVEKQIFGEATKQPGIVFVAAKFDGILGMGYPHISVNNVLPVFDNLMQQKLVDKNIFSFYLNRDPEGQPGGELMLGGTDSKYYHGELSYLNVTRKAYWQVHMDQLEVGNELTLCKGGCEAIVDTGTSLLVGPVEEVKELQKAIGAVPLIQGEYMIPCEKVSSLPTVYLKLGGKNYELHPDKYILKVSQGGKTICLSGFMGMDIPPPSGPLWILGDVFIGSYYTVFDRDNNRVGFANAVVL
- assay: Mouse hepatic lysosomal cathepsin D activity
- Type: biochemical
- applied.conditions: Table V; mouse hepatic, 60 min incubation; read-out: Cathepsin D IC50
Counter-ions that a name gives are not always drawn.
reported.endpoint: pIC50
On this scale, pIC50 is minus log10 of a concentration expressed in M (mol/L).

C[NH+](C)[BH2-]C(=O)O [Compound 23, Dimethylamine-carboxyborane, sodium salt] | 5.42

Query block: // lookup pIC50 for "[BH3-][NH+]1CCOCC1"
Result block: 6.06

Query block: Same again, this time with "CCCCCCCCCCCCCCCC[N+](C)(C)[BH2-]C(=O)O"
Result block: 5.55

Query block: Same again, this time with "O=C(O)[BH2-][n+]1ccccc1"
Result block: 5.32

Query block: Same again, this time with "C[N+](C)(C)[BH2-]C(=O)NO"
Result block: 5.44

----------
- System: Calcium
- assay: Serum and urine calcium levels in vivo
- applied.conditions: Cf1 male mice, 8 mg/kg/day I.P. 14 days, N=6
Here, each record is paired with measured Calcium urine data.
Respond with the bare value in % Control.

Below: 2 compounds and their reported Calcium urine.
C[NH2+][BH2-]C(=O)OC | 176.9
CC[NH2+][BH2-]C(=O)O | 61.2

We next turn to a different compound, shown below.
Query block: // lookup Calcium urine for "CCCCCCCCCCCCCCCCCC[N+](C)(C)[BH2-]C(=O)O"
Result block: 64.4

----------
- experimental.system: Cathepsin D (Homo sapiens)
- Construct: azocasein assay pH 5.0
- Sequence (P07339 65-412): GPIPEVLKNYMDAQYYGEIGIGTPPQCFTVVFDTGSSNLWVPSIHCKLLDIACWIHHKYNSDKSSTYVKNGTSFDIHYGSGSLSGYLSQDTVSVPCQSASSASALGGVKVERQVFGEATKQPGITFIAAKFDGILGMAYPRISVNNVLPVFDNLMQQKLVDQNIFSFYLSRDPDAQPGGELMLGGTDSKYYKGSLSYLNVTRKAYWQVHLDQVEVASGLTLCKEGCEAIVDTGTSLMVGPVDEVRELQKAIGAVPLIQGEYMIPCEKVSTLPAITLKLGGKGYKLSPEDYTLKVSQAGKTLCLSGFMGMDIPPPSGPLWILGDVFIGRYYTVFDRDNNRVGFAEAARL
- assay: Human osteoporosis fibroblasts cathepsin D (azo-casein) activity
- Assay type: cell-based
- applied.conditions: Table VIIIA; osteoporosis fibroblasts in vitro; read-out: Cathepsin Azo-casein IC-50
reported.endpoint: pIC50
On this scale, pIC50 is minus log10 of a concentration expressed in M (mol/L).

Query block: // lookup pIC50 for CCCCCCCCCCCCCCCC[N+](C)(C)[BH2-]C(=O)O [Compound 7, N,N-Dimethylhexadecylamine-carboxyborane]
Result block: 5.69

----------
Here, each record is paired with measured Calcium serum data.
- Tested on: Calcium
- assay: Serum and urine calcium levels in vivo
- applied.conditions: Cf1 male mice, 8 mg/kg/day I.P. 14 days, N=6
Respond with the bare value in % Control.

CC[NH2+][BH2-]C(=O)O | 121.0
C[NH2+][BH2-]C(=O)OC | 105.1
CCCCCCCCCCCCCCCCCC[N+](C)(C)[BH2-]C(=O)O | 135.4
COC(=O)[BH2-][NH+](C)C | 125.4

We next turn to a different compound, shown below.
Query block: // lookup Calcium serum for "C[N+](C)(C)[BH2-]C#N"
Result block: 109.7
